system: HepG2; test: Antiproliferative activity against human HepG2 cells assessed as cell proliferation after 72 hrs by MTT assay; type: functional; design: concentration or dose not given beside the values
MEASURED_ATTRIBUTE: Cell proliferation (%)
Give the value, in units of %, as a plain number.

Here is how some compounds turned out for Cell proliferation.
{"columns": ["COMPOUND", "Cell proliferation / %"],
 "data": [
  ["CC(C)(C)OC(=O)ON(C(=O)CC/C=C/CCC(=O)N(OC(=O)OC(C)(C)C)C(=O)OC(C)(C)C)C(=O)OC(C)(C)C", 138],
  ["CC(C)(C)OC(=O)ON(C(=O)CCCCCCC(=O)N(OC(=O)OC(C)(C)C)C(=O)OC(C)(C)C)C(=O)OC(C)(C)C", 108],
  ["CC(C)(C)OC(=O)Nc1ccccc1NC(=O)CCCCCCC(=O)Nc1ccccc1NC(=O)OC(C)(C)C", 136],
  ["O=C(CCCCCCC(=O)NO)NO [SUBEROHYDROXAMIC ACID]", 107],
  ["C=CCCC(=O)Nc1ccccc1NC(=O)OC(C)(C)C", 142],
  ["Nc1ccccc1NC(=O)CCCCCCC(=O)Nc1ccccc1N", 114]
]}

(Q) Could you tell me which Cell proliferation is on file for C=CCCC(=O)N(OC(=O)OC(C)(C)C)C(=O)OC(C)(C)C ?
(A) 110

----------
Target: Protein deacetylase HDAC6 (Homo sapiens, UniProt Q9UBN7)
Sequence (Q9UBN7 whole entry): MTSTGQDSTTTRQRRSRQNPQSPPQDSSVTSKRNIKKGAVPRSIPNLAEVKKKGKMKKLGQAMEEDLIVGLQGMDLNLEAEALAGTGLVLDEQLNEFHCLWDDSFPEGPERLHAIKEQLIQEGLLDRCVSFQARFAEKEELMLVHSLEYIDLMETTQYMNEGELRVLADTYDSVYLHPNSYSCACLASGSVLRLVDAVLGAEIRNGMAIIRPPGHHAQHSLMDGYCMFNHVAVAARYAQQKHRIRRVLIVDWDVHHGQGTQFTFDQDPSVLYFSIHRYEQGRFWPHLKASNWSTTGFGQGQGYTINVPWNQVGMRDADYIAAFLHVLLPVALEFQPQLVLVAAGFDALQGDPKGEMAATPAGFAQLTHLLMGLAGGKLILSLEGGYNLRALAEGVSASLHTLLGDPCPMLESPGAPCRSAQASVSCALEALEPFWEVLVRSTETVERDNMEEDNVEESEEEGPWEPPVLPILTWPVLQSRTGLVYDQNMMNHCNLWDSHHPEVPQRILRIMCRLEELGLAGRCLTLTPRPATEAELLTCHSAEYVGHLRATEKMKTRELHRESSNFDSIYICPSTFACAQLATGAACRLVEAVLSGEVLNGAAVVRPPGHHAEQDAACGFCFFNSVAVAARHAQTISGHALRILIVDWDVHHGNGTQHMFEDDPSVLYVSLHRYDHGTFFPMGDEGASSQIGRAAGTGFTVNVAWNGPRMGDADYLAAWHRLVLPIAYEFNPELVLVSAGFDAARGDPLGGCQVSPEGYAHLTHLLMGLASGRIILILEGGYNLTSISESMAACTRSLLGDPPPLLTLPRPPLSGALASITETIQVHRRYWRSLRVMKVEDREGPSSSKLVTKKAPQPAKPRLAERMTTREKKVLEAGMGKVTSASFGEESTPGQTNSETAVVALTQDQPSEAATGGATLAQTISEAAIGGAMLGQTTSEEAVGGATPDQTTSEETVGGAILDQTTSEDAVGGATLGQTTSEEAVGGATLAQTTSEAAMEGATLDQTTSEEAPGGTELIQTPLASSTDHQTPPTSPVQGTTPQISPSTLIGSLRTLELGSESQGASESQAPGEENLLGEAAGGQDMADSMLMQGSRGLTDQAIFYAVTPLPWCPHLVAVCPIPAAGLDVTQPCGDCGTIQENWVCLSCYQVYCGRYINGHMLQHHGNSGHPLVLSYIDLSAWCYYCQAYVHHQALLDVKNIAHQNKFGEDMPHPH
Experiment: Inhibition of HDAC6 in human HeLa cells assessed as inhibition of tubulin deacetylation incubated for overnight by cELISA
The molecules listed here are annotated with their EC50.
Only the number, expressed in µM, is required.

Example entries begin here.
{"columns": ["MOLECULE", "SYSTEM", "UNIT_NAME", "MEASURED"],
 "data": [
  ["CC(C)(C)OC(=O)ON(C(=O)CC/C=C/CCC(=O)N(OC(=O)OC(C)(C)C)C(=O)OC(C)(C)C)C(=O)OC(C)(C)C", "Protein deacetylase HDAC6 (Homo sapiens, UniProt Q9UBN7)", "µM", 17.7],
  ["O=C(CCCCCCC(=O)NO)NO [SUBEROHYDROXAMIC ACID]", "Protein deacetylase HDAC6 (Homo sapiens, UniProt Q9UBN7)", "µM", 1.1]
]}

Let us examine a further case.
(Q) I'd like to know its EC50. The molecule in question is CC(C)(C)OC(=O)ON(C(=O)CCCCCCC(=O)N(OC(=O)OC(C)(C)C)C(=O)OC(C)(C)C)C(=O)OC(C)(C)C
(A) 5

----------
biological target: Histone deacetylase (Homo sapiens) (UniProt Q13547+O15379+Q9UBN7+Q92769+Q9UQL6+Q8WUI4+Q9BY41+Q96DB2+P56524+Q9UKV0+Q969S8); experiment: Inhibition of HDAC in human MeT-5A cells assessed as hisone H3 acetylation after 16 hrs by BRET assay; assay type: cell-based
Active and inactive are the calls of the source. The calls are words filed in the database; no cut-off is given here.
Please state which outcome applies, choosing from label 1 (active), label 0 (inactive)

# count of solved cases: 4
{"columns": ["SMILES_NOTATION", "LABEL_CLASS"],
 "data": [
  ["CC(C)(C)OC(=O)Nc1ccccc1NC(=O)CCCCCCC(=O)Nc1ccccc1NC(=O)OC(C)(C)C", "label 0"],
  ["CC(C)(C)OC(=O)ON(C(=O)CCCCCCC(=O)N(OC(=O)OC(C)(C)C)C(=O)OC(C)(C)C)C(=O)OC(C)(C)C", "label 1"],
  ["CC(C)(C)OC(=O)Nc1ccccc1NC(=O)CC/C=C/CCC(=O)Nc1ccccc1NC(=O)OC(C)(C)C", "label 0"],
  ["CC(C)(C)OC(=O)ON(C(=O)CC/C=C/CCC(=O)N(OC(=O)OC(C)(C)C)C(=O)OC(C)(C)C)C(=O)OC(C)(C)C", "label 0"]
]}

(Q) Check the results log: what was the call for Nc1ccccc1NC(=O)CCCCCCC(=O)Nc1ccccc1N ?
(A) label 1

----------
Measured pIC50 accompanies every entry in the list below.
Molecular target: UniProt:Q9UBN7
Sequence (Q9UBN7 whole entry): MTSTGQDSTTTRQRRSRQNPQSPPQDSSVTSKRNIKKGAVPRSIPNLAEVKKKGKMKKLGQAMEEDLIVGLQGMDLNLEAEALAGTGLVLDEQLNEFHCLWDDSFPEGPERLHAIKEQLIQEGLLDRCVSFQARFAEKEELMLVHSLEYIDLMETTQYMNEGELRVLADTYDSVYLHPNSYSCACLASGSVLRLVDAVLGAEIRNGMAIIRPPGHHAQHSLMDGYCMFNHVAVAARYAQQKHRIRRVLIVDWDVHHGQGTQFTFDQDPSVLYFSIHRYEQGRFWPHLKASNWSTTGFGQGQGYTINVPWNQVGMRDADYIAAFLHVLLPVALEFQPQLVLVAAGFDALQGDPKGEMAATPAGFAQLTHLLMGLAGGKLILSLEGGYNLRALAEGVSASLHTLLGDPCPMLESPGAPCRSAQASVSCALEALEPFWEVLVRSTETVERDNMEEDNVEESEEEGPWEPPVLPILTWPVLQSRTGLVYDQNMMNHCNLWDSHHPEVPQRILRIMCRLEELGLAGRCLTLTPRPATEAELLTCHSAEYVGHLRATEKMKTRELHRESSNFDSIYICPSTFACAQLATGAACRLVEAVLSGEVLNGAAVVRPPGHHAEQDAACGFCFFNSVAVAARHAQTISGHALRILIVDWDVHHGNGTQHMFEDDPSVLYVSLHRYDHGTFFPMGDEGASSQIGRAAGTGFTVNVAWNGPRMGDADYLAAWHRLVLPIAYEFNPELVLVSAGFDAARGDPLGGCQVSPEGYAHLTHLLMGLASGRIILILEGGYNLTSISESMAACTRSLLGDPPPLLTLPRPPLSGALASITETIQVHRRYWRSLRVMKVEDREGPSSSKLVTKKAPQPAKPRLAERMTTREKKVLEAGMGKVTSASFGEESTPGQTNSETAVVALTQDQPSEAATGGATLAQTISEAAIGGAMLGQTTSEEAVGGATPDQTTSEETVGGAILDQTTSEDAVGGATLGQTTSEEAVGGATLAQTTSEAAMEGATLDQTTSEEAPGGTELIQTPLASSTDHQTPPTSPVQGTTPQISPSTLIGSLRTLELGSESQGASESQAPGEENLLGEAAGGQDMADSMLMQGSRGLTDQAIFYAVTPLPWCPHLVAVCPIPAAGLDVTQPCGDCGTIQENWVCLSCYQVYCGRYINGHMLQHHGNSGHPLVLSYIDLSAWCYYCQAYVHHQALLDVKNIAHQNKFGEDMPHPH
Conceptually, pIC50 converts a concentration in mol/L into minus its log10.

{"columns": ["COMPOUND", "pIC50"],
 "data": [
  ["CC(C)(C)OC(=O)ON(C(=O)CCCCCCC(=O)N(OC(=O)OC(C)(C)C)C(=O)OC(C)(C)C)C(=O)OC(C)(C)C", 5.47]
]}

Read the next record carefully.
(Q) Would you kindly share the measured pIC50 for O=C(CCCCCCC(=O)NO)NO [SUBEROHYDROXAMIC ACID] ?
(A) 5.69
